# Tested on: AMARE
# MEASUREMENT DESCRIPTION: Post-emergence action at 320 g/ha against AMARE
# Type: in vivo, Amaranthus retroflexus
# EXPERIMENTAL CONTEXT: visual rating about 3 weeks after treatment vs untreated controls
What Post-emergence action against AMARE in % was measured for each of the following?
Write the number in % without appending the unit.

QUERY: What measured Post-emergence action against AMARE in % goes with CS(=O)(=O)NC(=O)COc1nn(-c2ccccc2F)c(-c2ccc(F)nc2)c1Br ?
RESULT: 90

QUERY: What measured Post-emergence action against AMARE in % goes with COC(=O)COc1nn(-c2cc(F)ccc2F)c(-c2ccc(F)nc2)c1Br ?
RESULT: 80

QUERY: What measured Post-emergence action against AMARE in % goes with CCOC(=O)C(C)Oc1nn(-c2ccccc2F)c(-c2ccc(F)nc2)c1Br (stereo not drawn) ?
RESULT: 80

QUERY: What measured Post-emergence action against AMARE in % goes with CCOC(=O)COc1nn(-c2ccccc2F)c(-c2cncc(F)c2)c1Br ?
RESULT: 90

QUERY: What measured Post-emergence action against AMARE in % goes with O=C(O)COc1nn(-c2ccccc2F)c(-c2cncc(F)c2)c1Br ?
RESULT: 90

QUERY: What measured Post-emergence action against AMARE in % goes with COC(=O)C(C)Oc1nn(-c2ccccc2)c(-c2ccc(F)nc2)c1Br (stereo not drawn) [VII-026] ?
RESULT: 90

QUERY: What measured Post-emergence action against AMARE in % goes with CCOC(=O)COc1nn(-c2ccccc2F)c(-c2ccc(F)nc2)c1F ?
RESULT: 80

QUERY: What measured Post-emergence action against AMARE in % goes with COC(=O)COc1nn(-c2ccc(F)cc2)c(-c2cccnc2)c1Br ?
RESULT: 80

QUERY: What measured Post-emergence action against AMARE in % goes with CCOC(=O)COc1nn(-c2ccc(F)cc2F)c(-c2ccc(F)nc2)c1Cl ?
RESULT: 90

---

What Pre-emergence action against ECHCG was measured for each of the following?
# System: ECHCG
# MEASUREMENT DESCRIPTION: Pre-emergence action against ECHCG, 1280 g/ha
# Format: in vivo, Echinochloa crus-galli
# EXPERIMENTAL CONTEXT: visual scoring after about 3 weeks vs untreated controls, 100% = plants have died, 0% = like control plants
Write the number in % without appending the unit.

QUERY: What measured Pre-emergence action against ECHCG goes with CONC(=O)COc1nn(-c2ccc(F)cc2F)c(-c2ccc(F)nc2)c1Br ?
RESULT: 100

QUERY: What measured Pre-emergence action against ECHCG goes with CCOC(=O)COc1nn(-c2ccccc2F)c(-c2cnc(F)c(F)c2)c1Br ?
RESULT: 90

QUERY: What measured Pre-emergence action against ECHCG goes with CSCCOC(=O)COc1nn(-c2ccccc2F)c(-c2ccc(F)nc2)c1Br ?
RESULT: 100

QUERY: What measured Pre-emergence action against ECHCG goes with O=C(O)C1CCN(C(=O)COc2nn(-c3ccccc3F)c(-c3cncc(F)c3)c2Br)C1 (stereo not shown) ?
RESULT: 90

QUERY: What measured Pre-emergence action against ECHCG goes with COC(=O)COc1nn(-c2c(F)cccc2F)c(-c2ccc(F)nc2)c1Br ?
RESULT: 100

QUERY: What measured Pre-emergence action against ECHCG goes with CCOC(=O)COc1nn(-c2ccccc2F)c(-c2cncnc2)c1Br ?
RESULT: 100

QUERY: What measured Pre-emergence action against ECHCG goes with COC(=O)CNC(=O)COc1nn(-c2ccccc2F)c(-c2ccc(F)nc2)c1Br ?
RESULT: 90

QUERY: What measured Pre-emergence action against ECHCG goes with N#CCCNC(=O)COc1nn(-c2ccccc2F)c(-c2ccc(F)nc2)c1Br ?
RESULT: 100

QUERY: What measured Pre-emergence action against ECHCG goes with CCOC(=O)COc1nn(-c2ccc(F)cc2F)c(-c2ccc(F)nc2)c1Cl ?
RESULT: 100

QUERY: What measured Pre-emergence action against ECHCG goes with O=C(COc1nn(-c2ccccc2F)c(-c2ccc(F)nc2)c1Br)O[C@H]1CCOC1=O ?
RESULT: 100

QUERY: What measured Pre-emergence action against ECHCG goes with CONC(=O)COc1nn(-c2ccccc2F)c(-c2ccc(F)nc2)c1Br ?
RESULT: 100

QUERY: What measured Pre-emergence action against ECHCG goes with COC(=O)[C@@H](C)Oc1nn(-c2cc(F)ccc2F)c(-c2ccc(F)nc2)c1C#N ?
RESULT: 100

QUERY: What measured Pre-emergence action against ECHCG goes with COC(=O)CNC(=O)COc1nn(-c2ccccc2F)c(-c2ccnc(F)c2)c1Br ?
RESULT: 100

QUERY: What measured Pre-emergence action against ECHCG goes with COC(=O)[C@@H](C)Oc1nn(-c2ccccc2F)c(-c2ccc(F)nc2)c1Br ?
RESULT: 100

QUERY: What measured Pre-emergence action against ECHCG goes with CN(C)S(=O)(=O)NC(=O)COc1nn(-c2ccccc2F)c(-c2ccc(F)nc2)c1Br ?
RESULT: 100

QUERY: What measured Pre-emergence action against ECHCG goes with CCOC(=O)COc1nn(-c2ccccc2C)c(-c2ccc(F)nc2)c1Br ?
RESULT: 100

QUERY: What measured Pre-emergence action against ECHCG goes with O=C(COc1nn(-c2ccccc2F)c(-c2ccc(F)nc2)c1Br)NO ?
RESULT: 100

QUERY: What measured Pre-emergence action against ECHCG goes with COC(=O)COc1nn(-c2ccccc2F)c(-c2ccc(F)nc2)c1F ?
RESULT: 100

QUERY: What measured Pre-emergence action against ECHCG goes with CCOC(=O)COc1nn(-c2ccc(F)cc2)c(-c2ccc(F)nc2)c1I ?
RESULT: 100

---

# Tested on: VIOTR
# MEASUREMENT DESCRIPTION: Pre-emergence action at 320 g/ha against VIOTR
# Format: in vivo, Viola tricolor
# EXPERIMENTAL CONTEXT: dosage 320 g/ha
REPORTED ENDPOINT: Pre-emergence action against VIOTR in %
Remember to put the unit after the number in your answer.

QUERY: What measured Pre-emergence action against VIOTR in % goes with COC(=O)C(C)Oc1nn(-c2ccccc2F)c(-c2ccc(F)nc2)c1Br (stereo not drawn) [VII-060] ?
RESULT: 100%

QUERY: What measured Pre-emergence action against VIOTR in % goes with CCOC(=O)COc1nn(-c2ccccc2)c(-c2ccc(F)nc2)c1Br [VII-116] ?
RESULT: 90%

QUERY: What measured Pre-emergence action against VIOTR in % goes with CCOC(=O)COc1nn(-c2ccccc2C)c(-c2ccc(F)nc2)c1Br [VII-056-a] ?
RESULT: 100%

QUERY: What measured Pre-emergence action against VIOTR in % goes with CCOC(=O)COc1nn(-c2ccc(F)cc2F)c(-c2ccc(F)nc2)c1Cl [VII-016] ?
RESULT: 90%

QUERY: What measured Pre-emergence action against VIOTR in % goes with COC(=O)[C@H](C)Oc1nn(-c2cc(F)ccc2F)c(-c2ccc(F)nc2)c1Br [VII-107] ?
RESULT: 100%

QUERY: What measured Pre-emergence action against VIOTR in % goes with O=C(COc1nn(-c2ccccc2F)c(-c2ccc(F)nc2)c1Br)OCCCl [VII-108] ?
RESULT: 100%

QUERY: What measured Pre-emergence action against VIOTR in % goes with O=C(O)COc1nn(-c2ccccc2F)c(-c2cncc(F)c2)c1Br [VII-025] ?
RESULT: 100%

QUERY: What measured Pre-emergence action against VIOTR in % goes with CCOC(=O)COc1nn(-c2ccccc2F)c(-c2ccc(F)nc2)c1C(F)(F)F [VII-010] ?
RESULT: 100%

QUERY: What measured Pre-emergence action against VIOTR in % goes with COC(=O)[C@@H](C)Oc1nn(-c2ccccc2)c(-c2cccnc2)c1Br [VII-008] ?
RESULT: 100%

---

What Pre-emergence action against VIOTR in % was measured for each of the following?
# Test system: VIOTR
# MEASUREMENT DESCRIPTION: Pre-emergence action at 320 g/ha against VIOTR
# Type: in vivo, Viola tricolor
# EXPERIMENTAL CONTEXT: dosage 320 g/ha
Remember to put the unit after the number in your answer.

QUERY: What measured Pre-emergence action against VIOTR in % goes with COC(=O)[C@@H](C)Oc1nn(-c2cc(F)ccc2F)c(-c2cncc(F)c2)c1C#N [VII-147] ?
RESULT: 100%

QUERY: What measured Pre-emergence action against VIOTR in % goes with COC(=O)C(C)Oc1nn(-c2ccccc2)c(-c2ccnc(Cl)c2)c1Cl (stereo not shown) [VIII-001] ?
RESULT: 90%

QUERY: What measured Pre-emergence action against VIOTR in % goes with COC(=O)[C@@H](C)Oc1nn(-c2cc(F)ccc2F)c(-c2cncc(F)c2)c1I [VII-135] ?
RESULT: 100%

QUERY: What measured Pre-emergence action against VIOTR in % goes with COC(=O)C1CCCN1C(=O)COc1nn(-c2ccccc2F)c(-c2ccc(F)nc2)c1Br (stereo not shown) [Example X-016] ?
RESULT: 100%

QUERY: What measured Pre-emergence action against VIOTR in % goes with CCOC(=O)[C@@H](C)Oc1nn(-c2cc(F)ccc2F)c(-c2cncc(F)c2)c1Br [VII-136] ?
RESULT: 100%

QUERY: What measured Pre-emergence action against VIOTR in % goes with C[C@@H](Oc1nn(-c2cc(F)ccc2F)c(-c2cncc(F)c2)c1Br)C(=O)O [VII-137] ?
RESULT: 100%

QUERY: What measured Pre-emergence action against VIOTR in % goes with COC(=O)[C@@H](C)Oc1nn(-c2ccccc2F)c(-c2ccnc(F)c2)c1Br [VIII-006] ?
RESULT: 100%

QUERY: What measured Pre-emergence action against VIOTR in % goes with COC(=O)[C@@H](C)Oc1nn(-c2ccccc2)c(-c2cncnc2)c1Br [VI-013] ?
RESULT: 100%

QUERY: What measured Pre-emergence action against VIOTR in % goes with COC(=O)CNC(=O)COc1nn(-c2ccccc2F)c(-c2ccc(F)nc2)c1C(F)(F)F [Example X-007] ?
RESULT: 100%

QUERY: What measured Pre-emergence action against VIOTR in % goes with O=C(COc1nn(-c2ccccc2F)c(-c2ccc(F)nc2)c1Br)OCC1CCOC1 (stereo not shown) [VII-091] ?
RESULT: 100%

QUERY: What measured Pre-emergence action against VIOTR in % goes with COC(=O)CN(C)C(=O)COc1nn(-c2ccccc2F)c(-c2ccc(F)nc2)c1Br [Example X-030] ?
RESULT: 90%

QUERY: What measured Pre-emergence action against VIOTR in % goes with COC(=O)C(C)Oc1nn(-c2ccccc2)c(-c2cccnc2)c1Cl (stereo not shown) [VII-032] ?
RESULT: 100%

QUERY: What measured Pre-emergence action against VIOTR in % goes with COC(=O)COc1nn(-c2ccccc2F)c(-c2ccc(F)nc2)c1Br [VII-001] ?
RESULT: 100%

QUERY: What measured Pre-emergence action against VIOTR in % goes with C[C@@H](Oc1nn(-c2ccccc2F)c(-c2cncnc2)c1[N+](=O)[O-])C(=O)O [VI-016] ?
RESULT: 100%

QUERY: What measured Pre-emergence action against VIOTR in % goes with COC(=O)CNC(=O)COc1nn(-c2ccccc2F)c(-c2ccc(F)nc2)c1Br [Example X-002] ?
RESULT: 100%

QUERY: What measured Pre-emergence action against VIOTR in % goes with CCOC(=O)COc1nn(-c2ccccc2F)c(-c2ccc(F)nc2)c1C [VII-117] ?
RESULT: 100%

QUERY: What measured Pre-emergence action against VIOTR in % goes with COC(=O)C1CCCN(C(=O)COc2nn(-c3ccccc3F)c(-c3cncc(F)c3)c2Br)C1 (stereo not shown) [Example X-034] ?
RESULT: 90%

QUERY: What measured Pre-emergence action against VIOTR in % goes with COC(=O)C(C)Oc1nn(-c2ccccc2)c(-c2ccc(F)nc2)c1Br (stereo not shown) [VII-014] ?
RESULT: 100%

QUERY: What measured Pre-emergence action against VIOTR in % goes with COC(=O)COc1nn(-c2ccccc2F)c(-c2ccc(F)nc2)c1I [VII-113] ?
RESULT: 100%

QUERY: What measured Pre-emergence action against VIOTR in % goes with O=C(COc1nn(-c2ccccc2F)c(-c2ccnc(F)c2)c1Br)OCC1CCOC1 (stereo not shown) [VIII-011] ?
RESULT: 100%

QUERY: What measured Pre-emergence action against VIOTR in % goes with COC(=O)COc1nn(-c2ccccc2F)c(-c2cncc(F)c2)c1Br [VII-035] ?
RESULT: 100%

QUERY: What measured Pre-emergence action against VIOTR in % goes with CS(=O)(=O)NC(=O)COc1nn(-c2ccccc2F)c(-c2ccc(F)nc2)c1Br [Example X-004] ?
RESULT: 100%

QUERY: What measured Pre-emergence action against VIOTR in % goes with COCCOC(=O)COc1nn(-c2ccccc2F)c(-c2ccc(F)nc2)c1Br [VII-052] ?
RESULT: 100%

QUERY: What measured Pre-emergence action against VIOTR in % goes with COC(=O)[C@@H](C)Oc1nn(-c2ccccc2)c(-c2cccnc2)c1Cl [VII-041] ?
RESULT: 80%

QUERY: What measured Pre-emergence action against VIOTR in % goes with O=C(O)COc1nn(-c2ccccc2F)c(-c2ccnc(F)c2)c1Br [VIII-004] ?
RESULT: 90%
